# testSystem: rFIXa (human) (Homo sapiens)
# testSummary: Influence of alcohols and organic solvents on the activity of rFIXa, chromogenic peptide substrates
# Assay type: biochemical
# Set-up: coding for the FIX protease domain from amino acid position 181 to 415; Met (ATG start codon) (N); made in house
# reportedConditions: 33% additive; MeSO2-D-HHT-Gly-Arg-pNA 1.02 mmol/l; 0.48 μmol/l rFIXa; pH 7.4
# Sequence (P00740 227-461 limits assumed): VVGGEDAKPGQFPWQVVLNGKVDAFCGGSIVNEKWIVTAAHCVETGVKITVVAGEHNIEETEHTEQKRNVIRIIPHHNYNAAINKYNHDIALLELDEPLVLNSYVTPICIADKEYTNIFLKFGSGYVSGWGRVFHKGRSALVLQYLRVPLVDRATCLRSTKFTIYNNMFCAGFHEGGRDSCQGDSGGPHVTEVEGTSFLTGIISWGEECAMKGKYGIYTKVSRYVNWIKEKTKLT
# Sequence (P00740 131-226 partner limits assumed): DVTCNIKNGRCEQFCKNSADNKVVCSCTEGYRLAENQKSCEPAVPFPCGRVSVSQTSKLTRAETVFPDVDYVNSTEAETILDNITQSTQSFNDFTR
# V/V0 per entry

compound	testSystem	V/V0
CN(C)C=O [DMF, dimethylformamide]	rFIXa (human) (Homo sapiens)	0
CC#N [Acetonitrile]	rFIXa (human) (Homo sapiens)	0
CC(C)(C)O [t-Butanol]	rFIXa (human) (Homo sapiens)	0.368
CCO [Ethanol]	rFIXa (human) (Homo sapiens)	3.35
CO [Methanol]	rFIXa (human) (Homo sapiens)	2.83
C[S+](C)[O-] [DMSO, dimethylsulfoxide]	rFIXa (human) (Homo sapiens)	1.43
OCCO [Ethylene glycol]	rFIXa (human) (Homo sapiens)	12.68
CCCO [n-Propanol]	rFIXa (human) (Homo sapiens)	0.186
OCC(O)CO [Glycerol]	rFIXa (human) (Homo sapiens)	3.38
CC(C)O [i-Propanol]	rFIXa (human) (Homo sapiens)	0.346

---

# testSystem: rFIXa (human) (Homo sapiens, UniProt P00740)
# testSummary: Influence of alcohols and organic solvents on the activity of rFIXa, chromogenic peptide substrates
# Type: biochemical
# Parameters: coding for the FIX protease domain from amino acid position 181 to 415; Met (ATG start codon) (N); made in house
# reportedConditions: 50% additive; MeSO2-D-HHT-Gly-Arg-pNA 1.02 mmol/l; 0.48 μmol/l rFIXa; pH 7.4
# Description: The reaction was started by adding FIXa. MeSO2 -D-HHT-Gly-Arg-pNA→MeSO2 -D-HHT-Gly-Arg+pNA measurement signal: pNA 0.48 μmol/l rFIXa (human) 0-50% (alcohol or organic solvent) The ratio V/V0 was calculated to illustrate the stimulation of the catalytic activity of rFIXa. V0, reaction rate without additives V, reaction rate in the presence of additives Test Mixture Chromogenic (Concentration in the Test)

molecule	V/V0
CC(C)(C)O [t-Butanol]	0.263
CN(C)C=O [DMF, dimethylformamide]	0
CO [Methanol]	0.588
C[S+](C)[O-] [DMSO, dimethylsulfoxide]	0.157
CCCO [n-Propanol]	0.056
CC#N [Acetonitrile]	0
OCCO [Ethylene glycol]	3.41
CCO [Ethanol]	0.606
CC(C)O [i-Propanol]	0.164
OCC(O)CO [Glycerol]	5.91

---

# testSystem: UniProt:P00740
# testSummary: Influence of alcohols and organic solvents on the activity of rFIXa, chromogenic peptide substrates
# Type: biochemical
# Parameters: coding for the FIX protease domain from amino acid position 181 to 415; Met (ATG start codon) (N); made in house
# reportedConditions: 41% additive; MeSO2-D-HHT-Gly-Arg-pNA 1.02 mmol/l; 0.48 μmol/l rFIXa; pH 7.4
Decide using V/V0: a value greater than or equal to 0.9 is rule met, a smaller one is rule not met.

molecule	class
CO	rule met
OCC(O)CO	rule met
CCCO	rule not met
CC#N	rule not met
CC(C)(C)O	rule not met
CC(C)O	rule not met
CN(C)C=O [DMF, dimethylformamide]	rule not met
OCCO	rule met

---

# testSystem: native FIXa (human) (Homo sapiens)
# Sequence (P00740 227-461 limits assumed): as the sequence (P00740 227-461 limits assumed) above
# Sequence (P00740 47-191 partner limits assumed): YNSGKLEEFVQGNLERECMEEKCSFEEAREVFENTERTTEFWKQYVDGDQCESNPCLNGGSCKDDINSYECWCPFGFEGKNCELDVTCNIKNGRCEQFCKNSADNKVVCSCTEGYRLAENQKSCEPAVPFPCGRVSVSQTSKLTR
# testSummary: Determination of the dissociation constant Ki according to DIXON, native FIXa
# Assay type: biochemical
# Set-up: 0.14 μmol/l native FIXa (human)
# reportedConditions: native FIXa; substrate MeSO2-D-HHT-Gly-Arg-pNA; pH 8.5; 33% ethylene glycol
# Description: Determination of the Dissociation Constant Ki According to the Method of DIXON 42 mmol/l Tris-HCl, pH 8.5 inhibitor in stepped concentrations (0, 20.4 and 40.8 μmol/l) […] 0.07 μmol/l native FIXa (human) TIPPS-(3-Am)Phe-iNip-OH was used as the inhibitor and the inhibitory effect was determined as an example for two substrates under optimal conditions (pH 8.5, 33% ethylene glycol).
pKi: −log10 of the molar value.
readout: pKi

compound	readout	result
CC(C)c1cc(C(C)C)c(S(=O)(=O)NC(Cc2cccc(C(=N)N)c2)C(=O)N2CCC(C(=O)O)CC2)c(C(C)C)c1 (stereo not shown)	pKi	5.05

---

# testSystem: rFIXa (human) (Homo sapiens, UniProt P00740)
# testSummary: Influence of alcohols and organic solvents on the activity of rFIXa, chromogenic peptide substrates
# Type: biochemical
# Parameters: coding for the FIX protease domain from amino acid position 181 to 415; Met (ATG start codon) (N); made in house
# reportedConditions: 16% additive; MeSO2-D-HHT-Gly-Arg-pNA 1.02 mmol/l; 0.48 μmol/l rFIXa; pH 7.4
# V/V0 per entry

compound	V/V0
CO	3.46
CC(C)O	2.48
CC(C)(C)O	1.67
CCO	5.52
CCCO	2.26
CC#N	0.314
C[S+](C)[O-] [DMSO, dimethylsulfoxide]	1.45
CN(C)C=O [DMF, dimethylformamide]	0.514
OCC(O)CO	1.64
OCCO	6.05

---

# V/V0 per entry
# testSystem: rFIXa (human) (Homo sapiens, UniProt P00740)
# testSummary: Influence of alcohols and organic solvents on the activity of rFIXa, chromogenic peptide substrates
# Type: biochemical
# Set-up: coding for the FIX protease domain from amino acid position 181 to 415; Met (ATG start codon) (N); made in house
# reportedConditions: 25% additive; MeSO2-D-HHT-Gly-Arg-pNA 1.02 mmol/l; 0.48 μmol/l rFIXa; pH 7.4

molecule	V/V0
OCC(O)CO [Glycerol]	2.47
CC(C)(C)O [t-Butanol]	0.702
CCCO [n-Propanol]	0.339
CN(C)C=O [DMF, dimethylformamide]	0
CC(C)O [i-Propanol]	1.18
CC#N [Acetonitrile]	0
CCO [Ethanol]	5.57
C[S+](C)[O-] [DMSO, dimethylsulfoxide]	1.59
CO [Methanol]	3.71
OCCO [Ethylene glycol]	10.27

---

# testSystem: rFIXa (human) (Homo sapiens)
# testSummary: Determination of the dissociation constant Ki according to DIXON, rFIXa
# Format: biochemical
# Parameters: coding for the FIX protease domain from amino acid position 181 to 415; Met (ATG start codon) (N); made in house
# reportedConditions: recombinant FIXa; substrate MeSO2-D-HHT-Gly-Arg-pNA; pH 8.5; 33% ethylene glycol
# Sequence (P00740 227-461 limits assumed): as the sequence (P00740 227-461 limits assumed) above
# Sequence (P00740 131-226 limits assumed): as the sequence (P00740 131-226 partner limits assumed) above
pKi: −log10 of the molar value.
readout: pKi

compound	result
CC(C)c1cc(C(C)C)c(S(=O)(=O)NC(Cc2cccc(C(=N)N)c2)C(=O)N2CCC(C(=O)O)CC2)c(C(C)C)c1 (stereo not shown)	4.92

---

# testSystem: rFIXa (human) (Homo sapiens)
# testSummary: Influence of alcohols and organic solvents on the activity of rFIXa, chromogenic peptide substrates
# Type: biochemical
# Parameters: coding for the FIX protease domain from amino acid position 181 to 415; Met (ATG start codon) (N); made in house
# reportedConditions: 8% additive; MeSO2-D-HHT-Gly-Arg-pNA 1.02 mmol/l; 0.48 μmol/l rFIXa; pH 7.4
# V/V0 per entry

molecule	V/V0
CO	2.16
CCCO	3.43
CC(C)(C)O	2.05
CC#N	0.828
C[S+](C)[O-] [DMSO, dimethylsulfoxide]	1.27
CC(C)O	2.17
CN(C)C=O [DMF, dimethylformamide]	0.649
OCCO	2.91
OCC(O)CO	1.12
CCO	2.99

---

# testSystem: rFIXa (human) (Homo sapiens, UniProt P00740)
# testSummary: Determination of the dissociation constant Ki according to DIXON, rFIXa
# Assay type: biochemical
# Set-up: coding for the FIX protease domain from amino acid position 181 to 415; Met (ATG start codon) (N); made in house
# reportedConditions: rFIXa; substrate MeSO2-D-CHG-Gly-Arg-pNA; pH 8.5; 33% ethylene glycol
readout: Ki (µM)

compound	readout	measurementUnit	result
CC(C)c1cc(C(C)C)c(S(=O)(=O)NC(Cc2cccc(C(=N)N)c2)C(=O)N2CCC(C(=O)O)CC2)c(C(C)C)c1 (stereo not shown) [TIPPS-(3-Am)Phe-iNip-OH]	Ki	µM	16

---

# testSystem: rFIXa (human) (Homo sapiens)
# testSummary: Influence of alcohols and organic solvents on the activity of rFIXa, chromogenic peptide substrates
# Type: biochemical
# Set-up: coding for the FIX protease domain from amino acid position 181 to 415; Met (ATG start codon) (N); made in house
# reportedConditions: additive 0-50%; MeSO2-D-HHT-Gly-Arg-pNA; pH 7.4
readout: effect on the activity of rFIXa (in words)

molecule	result
CC#N	inactivate the enzyme
CN(C)C=O [DMF, dimethylformamide]	inactivate the enzyme
